Tested on: A. baumannii
measurement-description: MIC by broth dilution, A. baumannii
Type: cell-based
condition-set: Acinetobacter baumannii; Mueller-Hinton broth, overnight 37° C.; Table 1; read-out: MIC (μg/mL) A. baumannii
measured-metric: MIC

Below, 3 compounds whose answers are already recorded.
Req: Entry `CCCCCCCCCOc1ccccc1C(=O)Nc1ccc(C(=O)OCC[N+](C)(CC)CC)cc1.[Br-]` has what MIC?
Resp: 3 to 30 µg/mL

Req: Entry `CCCCCCCCOc1ccccc1C(=O)Nc1ccc(C(=O)OCC[N+]2(CCC)CCCC2)cc1.[Br-]` has what MIC?
Resp: 3 to 30 µg/mL

Req: Entry `CCCCCCCCOc1ccccc1C(=O)Nc1ccc(S(=O)(=O)NCC[N+](C)(CC)CC)cc1.[Br-]` has what MIC?
Resp: 3 to 30 µg/mL

Record MIC for all entries; do not skip any.
1. CCCCCCCCOc1ccccc1C(=O)Nc1ccc(C(=O)OCCC[N+](C)(CC)CC)cc1.[I-]
2. CCCCCCCCOc1ccc(C(=O)Nc2ccc(C(=O)OCC[N+](C)(CC)CC)cc2)cc1.[Br-]
3. CCCCCCCOc1ccccc1C(=O)Nc1ccc(S(=O)(=O)NCC[N+](CC)(CC)CCCC)cc1.[Br-]
4. CCCCCCCCOc1ccccc1C(=O)Nc1ccc(C(=O)N(C)CC[N+](CC)(CC)CCC)cc1.[Br-]

Resp:
1. 3 to 30 µg/mL
2. > 30 µg/mL
3. > 30 µg/mL
4. > 30 µg/mL
